System: Escherichia coli TOP10
Assay: shrunken log2 fold change of peptide-encoding DNA abundance (4.5 h post-induction vs induction); higher = less antimicrobial activity (less host growth inhibition)
Details: time post-induction: 4.5 h; library: site-saturation at positions 5, 18, 19, 20
// label = criterion met if shrunken log2 fold change is not less than 0.04, otherwise criterion not met

(Q) Entry `RRIRQRPPRLPRPRPRPPHPPRP` : is its shrunken log2 fold change no less than 0.04?
(A) criterion met

(Q) # check: shrunken log2 fold change of `RRIRCRPPRLPRPRPRPFQTPRP` is greater than or equal to 0.04
(A) criterion not met

(Q) Determine whether this sequence has shrunken log2 fold change no lower than 0.04: `RRIRHRPPRLPRPRPRPSQRPRP`
(A) criterion not met

(Q) Check if shrunken log2 fold change >= 0.04 (inclusive). Item: `RRIRVRPPRLPRPRPRPEDCPRP`
(A) criterion not met

(Q) Reported shrunken log2 fold change reaches at least 0.04 for `RRIRWRPPRLPRPRPRPTPFPRP` ?
(A) criterion met

(Q) Textbook exercise: given the entry `RRIRKRPPRLPRPRPRPETFPRP` , state whether its shrunken log2 fold change is greater than or equal to 0.04.
(A) criterion not met

(Q) Is shrunken log2 fold change at least 0.04? Consider `RRIRFRPPRLPRPRPRPEYCPRP`
(A) criterion met

###

For each entry below, report its shrunken log2 fold change value.
Test system: Escherichia coli TOP10;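 also: peptides expressed intracellularly from a pBAD plasmid library in pooled LB shake-flask culture, induced with 0.3% L-arabinose, DNA abundance read by NGS, three biological replicates, DESeq2 with apeglm shrinkage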
Assay: shrunken log2 fold change of peptide-encoding DNA abundance (4.5 h post-induction vs induction); higher = less antimicrobial activity (less host growth inhibition)
Conditions: time post-induction: 4.5 h; library: site-saturation at positions 5, 18, 19, 20
Lab note: write the figure by itself, no unit.

(Q) I have this sequence here, `RRIRARPPRLPRPRPRPNERPRP` , and I need its recorded shrunken log2 fold change.
(A) 0.531

(Q) Fill in the blank: the reported shrunken log2 fold change of `RRIRDRPPRLPRPRPRPGYKPRP` is ____.
(A) -0.121

(Q) If you can, please state the reported shrunken log2 fold change value of `RRIRYRPPRLPRPRPRPQFCPRP` .
(A) -0.0677

(Q) Which shrunken log2 fold change is reported for this sequence? `RRIRYRPPRLPRPRPRPYLMPRP`
(A) -0.254

(Q) Which shrunken log2 fold change is listed for `RRIRSRPPRLPRPRPRPFQAPRP` ?
(A) 0.0408

(Q) Give its shrunken log2 fold change value. Item: `RRIRQRPPRLPRPRPRPEWCPRP`
(A) -0.0929

(Q) State the recorded shrunken log2 fold change for this entry: `RRIRSRPPRLPRPRPRPFPFPRP`
(A) -0.187

(Q) Any idea what shrunken log2 fold change was measured for `RRIRMRPPRLPRPRPRPIWPPRP` ?
(A) 0.769

(Q) For the sequence shown here, `RRIRPRPPRLPRPRPRPTLYPRP` , give the reported shrunken log2 fold change.
(A) 0.221

(Q) Request the reported shrunken log2 fold change associated with `RRIRKRPPRLPRPRPRPKKDPRP`
(A) 0.337

(Q) Given the sequence `RRIRHRPPRLPRPRPRPRLMPRP` , what is its reported shrunken log2 fold change?
(A) 0.121

(Q) Consider the sequence `RRIRQRPPRLPRPRPRPHWVPRP` and give its measured shrunken log2 fold change.
(A) 0.0288

(Q) Entry under review: `RRIRERPPRLPRPRPRPESWPRP` . Reported shrunken log2 fold change?
(A) 0.343

(Q) Which value of shrunken log2 fold change has been reported for `RRIRCRPPRLPRPRPRPVDDPRP` in the records?
(A) 0.157

(Q) Need shrunken log2 fold change, item `RRIRPRPPRLPRPRPRPCTIPRP`
(A) -0.536

(Q) Which shrunken log2 fold change value is on record for `RRIRVRPPRLPRPRPRPLPCPRP` ?
(A) -0.12

(Q) Tell me the measured shrunken log2 fold change of `RRIRMRPPRLPRPRPRPKHYPRP` , please.
(A) -0.0523

(Q) What does the data say about its shrunken log2 fold change? Entry: `RRIRKRPPRLPRPRPRPMGDPRP`
(A) 0.153

(Q) Could you tell me which shrunken log2 fold change is on file for `RRIRFRPPRLPRPRPRPMLRPRP` ?
(A) 0.0268

(Q) For the sequence `RRIRKRPPRLPRPRPRPRQVPRP` , what shrunken log2 fold change is on record?
(A) 0.029

(Q) Reported shrunken log2 fold change, sequence `RRIRQRPPRLPRPRPRPAHLPRP` : ____
(A) 0.362

(Q) // returns reported shrunken log2 fold change for input `RRIRLRPPRLPRPRPRPQYTPRP`
(A) -0.909

(Q) # input sequence: `RRIRSRPPRLPRPRPRPPDEPRP` ; wanted: its shrunken log2 fold change
(A) 0.813

(Q) Which shrunken log2 fold change is reported for this sequence? `RRIRFRPPRLPRPRPRPLQGPRP`
(A) 0.0475

(Q) Give its shrunken log2 fold change value. Item: `RRIRGRPPRLPRPRPRPMHQPRP`
(A) 0.696
